tested on: EOL-1; experiment: area under dose-response curve (cell viability) (AUC (arbitrary, % viability x log concentration)); higher = less sensitive (more viable); conditions: 4 days
Structures can show the parent of a compound that is named as a salt.

Compound	area under dose-response curve
Oc1cccc(-c2nc(N3CCOCC3)c3oc4ncccc4c3n2)c1 [PI-103]	422
O=C1NC(=O)c2c1c1c3ccccc3n3c1c1c2c2ccccc2n1[C@H]1CC[C@@H]3O1	522
COc1ccc2c3n(c(=NC(=O)c4cccnc4)nc2c1OC)CCN3 [PIK-90]	559
O=c1c(N=Nc2ccc(S(=O)(=O)O)cc2)c(-c2ccc([N+](=O)[O-])cc2)[nH]n1-c1ccccc1 [PHPS1]	690
NC(=O)c1ccc(I)c([N+](=O)[O-])c1 [BSI-201]	622
O=C1NC(=O)/C(=C\c2ccc3nccnc3c2)S1	679
CN1CCN(CCOc2cc(OC3CCOCC3)c3c(Nc4c(Cl)ccc5c4OCO5)ncnc3c2)CC1 [AZD0530]	565
CC[C@H](C)C(=O)O[C@H]1C[C@H](O)C=C2C=C[C@H](C)[C@H](CC[C@@H](O)C[C@@H](O)CC(=O)O)[C@H]21 [Pravastatin]	691
CO[C@@H]1[C@H](N(C)C(=O)c2ccccc2)C[C@H]2O[C@]1(C)n1c3ccccc3c3c4c(c5c6ccccc6n2c5c31)C(=O)NC4 [PKC412]	245
CN(C)CC[C@H](CSc1ccccc1)Nc1ccc(S(=O)(=O)NC(=O)c2ccc(N3CCN(Cc4ccccc4-c4ccc(Cl)cc4)CC3)cc2)cc1[N+](=O)[O-] [ABT-737]	333
NC(=O)c1ccc(-c2nc(-c3ccccn3)c(-c3ccc4c(c3)OCO4)[nH]2)cc1	600
CC[C@H](Nc1ncnc2[nH]cnc12)c1nc2cccc(F)c2c(=O)n1-c1ccccc1 [CAL-101]	558
COc1ccc2c(c1)CCC1C2CCC2(C)C(NCCCCCCN3C(=O)C=CC3=O)CCC12 (configuration not stated)	523
NC1(c2ccc(-c3nc4ccn5c(=O)[nH]nc5c4cc3-c3ccccc3)cc2)CCC1 [MK2206]	416
Cc1cn(-c2cc(NC(=O)c3ccc(C)c(Nc4nccc(-c5cccnc5)n4)c3)cc(C(F)(F)F)c2)cn1 [Nilotinib]	300
CCC1=C[C@@H]2CN(C1)Cc1c([nH]c3ccccc13)[C@@](C(=O)OC)(c1cc3c(cc1OC)N(C)[C@H]1[C@@](O)(C(=O)OC)[C@H](OC(C)=O)[C@]4(CC)C=CCN5CC[C@]31[C@@H]54)C2 [Vinorelbine tartrate]	216
C=CCNC1=C2C[C@@H](C)C[C@H](OC)[C@H](O)[C@@H](C)/C=C(\C)[C@H](OC(N)=O)[C@@H](OC)/C=C\C=C(/C)C(=O)NC(=CC1=O)C2=O [Tanespimycin]	440

The reported numbers originate from the supplement of paper PMC5752671.
